These entries and their values trace back to patent US20030068615A1.

Target: HIV-1LAI envelope gp120 (Human immunodeficiency virus type 1 group M subtype B, UniProt P03377)
Format: binding
Conditions: Panel D, 9-mers and 12-mers of CD4; empty control […]
Categorize each record by its COUNTS of radiolabeled gp120 retained using low (below 600 counts), medium (600 counts to below 700 counts), high (700 counts or more)

Some entries whose results are on file:
KNLKIEDSDTYI : low
ANSDTHLLQGQS : low
KEEVQLLVFGLT : high
FGLTANSDT : low
DQGNFPLII : medium
YICEVEDQK : high
FPLIIKNLKIED : low
EDSDTYICEVED : high
IEDSDTYIC : low
LLVFGLTANSDT : low

Could you now consider this next sequence?
Query: Which class is correct for the following sequence? `TYICEVEDQKEE`
Response: high

----------
Biological target: HIV-1LAI envelope gp120 (Human immunodeficiency virus type 1 group M subtype B, UniProt P03377)
Assay type: binding
Conditions: Panel D, 9-mers and 12-mers of CD4; empty control […]
COUNTS of radiolabeled gp120 retained values for the sequences below.
Number in counts, nothing else.

Query: Determine from records and report COUNTS of radiolabeled gp120 retained for `ICEVEDQKE`
Response: 596

Query: Determine from records and report COUNTS of radiolabeled gp120 retained for `THLLQGQSL`
Response: 512

Query: Determine from records and report COUNTS of radiolabeled gp120 retained for `QGQSLTLTL`
Response: 594

Query: Determine from records and report COUNTS of radiolabeled gp120 retained for `VFGLTANSDTHL`
Response: 548

Query: Determine from records and report COUNTS of radiolabeled gp120 retained for `LTANSDTHL`
Response: 596

Query: Determine from records and report COUNTS of radiolabeled gp120 retained for `QGNFPLIIKNLK`
Response: 533

Query: Determine from records and report COUNTS of radiolabeled gp120 retained for `DTHLLQGQS`
Response: 578

Query: Determine from records and report COUNTS of radiolabeled gp120 retained for `DQKEEVQLL`
Response: 589

Query: Determine from records and report COUNTS of radiolabeled gp120 retained for `NSDTHLLQG`
Response: 561

----------
Target: HIV-1LAI envelope gp120 (Human immunodeficiency virus type 1 group M subtype B, UniProt P03377)
Format: binding
Settings: CCR5 alanine mutant peptide; radiolabeled HIV-1LAI gp120
percentage of binding of mutant polypeptide compared to wild-type polypeptide, gp120 values for the sequences below.
Number in %, nothing else.

Study these solved cases before continuing.
MDYQVSSPIYAINYYTSE [CCR5 (1-18) variant D11A] : 62.8
MDYAVSSPIYDINYYTSE [CCR5 (1-18) variant Q4A] : 104
MDYQVSSPIYDINYATSE [CCR5 (1-18) variant Y15A] : 21

Query: Determine from records and report percentage of binding of mutant polypeptide compared to wild-type polypeptide, gp120 for MDYQVSSPIADINYYTSE [CCR5 (1-18) variant Y10A]
Response: 19.2

Query: Determine from records and report percentage of binding of mutant polypeptide compared to wild-type polypeptide, gp120 for MDYQVSSPIYDINYYTSA [CCR5 (1-18) variant E18A]
Response: 4.1

Query: Determine from records and report percentage of binding of mutant polypeptide compared to wild-type polypeptide, gp120 for MDYQVSSPIYDINAYTSE [CCR5 (1-18) variant Y14A]
Response: 14.6
